# pIC50 listing for each entry below
molecular target: Endothelin-1 receptor (Sus scrofa, UniProt Q29010); assay: In vitro inhibition of [125I]ET1 binding to Endothelin A receptor in porcine aortic membrane from endothelial cells; assay type: cell membranes; conditions: in the assay text read “with endothelium removed” for “from endothelial cells”
Sequence (Q29010 whole entry): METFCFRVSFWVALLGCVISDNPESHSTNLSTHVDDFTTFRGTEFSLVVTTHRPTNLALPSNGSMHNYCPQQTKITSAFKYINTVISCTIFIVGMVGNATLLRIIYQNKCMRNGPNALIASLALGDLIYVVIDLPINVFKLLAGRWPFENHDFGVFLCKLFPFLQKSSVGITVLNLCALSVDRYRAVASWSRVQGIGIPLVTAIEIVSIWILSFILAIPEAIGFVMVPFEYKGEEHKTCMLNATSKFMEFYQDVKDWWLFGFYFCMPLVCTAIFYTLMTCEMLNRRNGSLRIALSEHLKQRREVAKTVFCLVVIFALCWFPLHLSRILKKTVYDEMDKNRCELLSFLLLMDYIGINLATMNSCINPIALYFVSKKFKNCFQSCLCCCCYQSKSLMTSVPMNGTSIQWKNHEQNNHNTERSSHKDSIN
pIC50: −log10 of the molar value.
readout: pIC50

| smiles_text | readout | observed_measurement |
| --- | --- | --- |
| Cc1ccc(-c2c(NS(=O)(=O)c3ccc(C(C)(C)C)cc3)ncnc2OCCOc2ncc(-c3ccco3)cn2)cc1 | pIC50 | > 12.00 |
| Cc1ccc(-c2c(NS(=O)(=O)c3ccc(C(C)(C)C)cc3)ncnc2OCCOc2ncc(-c3cccs3)cn2)cc1 | pIC50 | > 12.00 |
| Cc1ccc(-c2c(NS(=O)(=O)c3ccc(C(C)(C)C)cc3)ncnc2OCCOc2ncc(-c3ccsc3)cn2)cc1 | pIC50 | > 12.00 |
| Cc1ccc(-c2c(NS(=O)(=O)c3ccc(C(C)(C)C)cc3)ncnc2OCCO)cc1 | pIC50 | < 7.00 |
| COc1cccc(Oc2c(NS(=O)(=O)c3ccc(C(C)(C)C)cc3)ncnc2OCCCc2ncccn2)c1 | pIC50 | < 7.00 |
| CSc1cnc(OCCOc2ncnc(NS(=O)(=O)c3ccc(C(C)(C)C)cc3)c2-c2ccc(Cl)cc2)nc1 | pIC50 | > 12.00 |
| CCC(C)(C)c1ccc(S(=O)(=O)Nc2ncnc(OCCOc3ncc(Br)cn3)c2-c2ccc(C)cc2)cc1 | pIC50 | > 12.00 |
| CSc1cnc(OCCOc2ncnc(NS(=O)(=O)c3ccc(C(C)(C)C)cc3)c2-c2ccc(C)cc2)nc1 | pIC50 | > 12.00 |
| COc1ccc(-c2c(NS(=O)(=O)c3ccc(C(C)(C)C)cc3)ncnc2OCCOc2ncc(SC)cn2)cc1 | pIC50 | > 12.00 |
| Cc1ccc(-c2c(NS(=O)(=O)c3ccc(C(C)(C)C)cc3)ncnc2OCCOc2ncc(Cl)cn2)cc1 | pIC50 | > 12.00 |
| COc1cnc(OCCOc2ncnc(NS(=O)(=O)c3ccc(C(C)(C)C)cc3)c2-c2ccc(C)cc2)nc1 | pIC50 | 11.77 |
| COc1cccc(Oc2c(NS(=O)(=O)c3ccc(C(C)(C)C)cc3)ncnc2OCCNc2ncccn2)c1 | pIC50 | < 7.00 |
| CSc1cnc(OCCOc2ncnc(NS(=O)(=O)c3ccc(C(C)(C)C)cc3)c2-c2ccc(C(F)(F)F)cc2)nc1 | pIC50 | 11.77 |
| Cc1ccc(-c2c(NS(=O)(=O)c3ccc(C(C)(C)C)cc3)ncnc2OCCOc2ncc(-c3ccccn3)cn2)cc1 | pIC50 | 10.44 |
| Cc1ccc(-c2c(NS(=O)(=O)c3cccc4ccccc34)ncnc2OCCOc2ncc(Br)cn2)cc1 | pIC50 | 7.66 |
| COc1cccc(Oc2c(NS(=O)(=O)c3ccc(C(C)(C)C)cc3)ncnc2OCCOc2nccs2)c1 | pIC50 | 7.92 |
| COc1cccc(Oc2c(NS(=O)(=O)c3ccc(C(C)(C)C)cc3)ncnc2SCCOc2ncccn2)c1 | pIC50 | 7.59 |
| Cc1ccc(-c2c(NS(=O)(=O)c3ccc(C(F)(F)F)cc3)ncnc2OCCOc2ncc(Br)cn2)cc1 | pIC50 | 8.85 |
